Experiment: Intrinsic clearance in rat hepatocytes assessed per 1 x 10^6 cells
readout_type: hepatocyte CLint (µL/min/1e6 cells)

sample_smiles: CCc1ccc(OCC(=O)O)c(-c2ccc(S(C)(=O)=O)cc2)c1
hepatocyte CLint, µL/min/1e6 cells: 13
//
sample_smiles: O=C(O)COc1ccc(C(F)(F)F)cc1-c1ccc2c(c1)CCS2(=O)=O
hepatocyte CLint, µL/min/1e6 cells: 13

* * *

Target: Prostaglandin D2 receptor 2 (Homo sapiens)
Sequence (Q9Y5Y4 whole entry): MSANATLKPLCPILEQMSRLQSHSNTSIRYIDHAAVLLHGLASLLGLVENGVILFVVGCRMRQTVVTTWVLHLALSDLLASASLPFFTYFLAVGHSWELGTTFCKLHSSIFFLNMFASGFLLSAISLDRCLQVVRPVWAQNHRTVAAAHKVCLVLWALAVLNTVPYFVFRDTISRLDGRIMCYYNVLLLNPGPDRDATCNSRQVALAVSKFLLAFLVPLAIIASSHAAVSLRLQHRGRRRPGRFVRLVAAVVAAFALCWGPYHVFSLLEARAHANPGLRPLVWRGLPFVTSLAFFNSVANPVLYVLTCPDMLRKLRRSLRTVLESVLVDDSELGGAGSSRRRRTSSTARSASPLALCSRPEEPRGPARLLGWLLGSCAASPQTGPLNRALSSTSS
Assay: Antagonist activity at human CRTh2 receptor expressed in HEK cells assessed as inhibition of PGD2-induced calcium flux
Assay type: functional, cell-based, HEK293
readout_type: IC50 (nM)

Guide cases for IC50, answers given:
sample_smiles: N#Cc1ccc(OCC(=O)O)c(-c2ccccc2)c1
tgt: Prostaglandin D2 receptor 2 (Homo sapiens)
value_unit: nM
IC50: 251
//
sample_smiles: O=C(O)COc1ccc(-c2nccs2)cc1-c1ccccc1
tgt: Prostaglandin D2 receptor 2 (Homo sapiens)
value_unit: nM
IC50: 501
//
sample_smiles: O=C(O)COc1ccc(Br)cc1-c1ccccc1
tgt: Prostaglandin D2 receptor 2 (Homo sapiens)
value_unit: nM
IC50: 158

a = O=C(O)COc1ccc([N+](=O)[O-])cc1-c1ccccc1
b = Cc1ccc(OCC(=O)O)c(-c2ccccc2)c1
// query Response body: label of entry with the larger IC50; valid values a , b . Lab log: write the label of the selected item as the result.
// result b
(b: 708 nM, a: 178 nM)
